Assay: Half life in cynomolgous monkey at 5 mg/kg by LC-MS/MS analysis
Type: ADME, organism-based, Macaca fascicularis
Settings: cynomolgus monkey, in vivo
metric name: half-life

Prompt: Given CC(=O)N[C@@H](CC(C)C)C(=O)N[C@H](C(=O)N[C@@H](Cc1ccccc1)C(=O)N[C@]1(C)CCCCCC/C=C/CCC[C@@](C)(C(=O)N[C@@H](C)C(=O)N[C@@H](C)C(=O)N[C@@H](C)C(=O)N[C@@H](C)C(=O)N[C@@H](C)C(=O)N[C@H](C)C(N)=O)NC(=O)[C@H](CC(C)C)NC(=O)[C@H](CCC(N)=O)NC(=O)[C@H](C)NC(=O)[C@H](Cc2c[nH]c3ccccc23)NC(=O)[C@H](Cc2ccc(O)cc2)NC(=O)[C@H](CCC(=O)O)NC1=O)[C@@H](C)O , state its recorded half-life.
Response: 4.9 h

----------
Assay: AUC (all) in cynomolgous monkey at 5 mg/kg by LC-MS/MS analysis
Assay type: ADME, organism-based, Macaca fascicularis
Set-up: dose 5 mg/kg
Conditions: cynomolgus monkey, in vivo
metric name: AUC (µg·h/mL)
Write the value in µg·h/mL as a bare number.

Prompt: Given CC(=O)N[C@@H](CC(C)C)C(=O)N[C@H](C(=O)N[C@@H](Cc1ccccc1)C(=O)N[C@]1(C)CCCCCC/C=C/CCC[C@@](C)(C(=O)N[C@@H](C)C(=O)N[C@@H](C)C(=O)N[C@@H](C)C(=O)N[C@@H](C)C(=O)N[C@@H](C)C(=O)N[C@H](C)C(N)=O)NC(=O)[C@H](CC(C)C)NC(=O)[C@H](CCC(N)=O)NC(=O)[C@H](C)NC(=O)[C@H](Cc2c[nH]c3ccccc23)NC(=O)[C@H](Cc2ccc(O)cc2)NC(=O)[C@H](CCC(=O)O)NC1=O)[C@@H](C)O , state its recorded AUC.
Response: 914

----------
Assay: Half life in rat at 2.5 mg/kg by LC-MS/MS analysis
Format: ADME, organism-based
Details: in vivo
metric name: half-life (h)
Write the value in h as a bare number.

Prompt: Given CC(=O)N[C@@H](CC(C)C)C(=O)N[C@H](C(=O)N[C@@H](Cc1ccccc1)C(=O)N[C@]1(C)CCCCCC/C=C/CCC[C@@](C)(C(=O)N[C@@H](C)C(=O)N[C@@H](C)C(=O)N[C@@H](C)C(=O)N[C@@H](C)C(=O)N[C@@H](C)C(=O)N[C@H](C)C(N)=O)NC(=O)[C@H](CC(C)C)NC(=O)[C@H](CCC(N)=O)NC(=O)[C@H](C)NC(=O)[C@H](Cc2c[nH]c3ccccc23)NC(=O)[C@H](Cc2ccc(O)cc2)NC(=O)[C@H](CCC(=O)O)NC1=O)[C@@H](C)O , state its recorded half-life.
Response: 1.4

----------
Assay: Solubility of the compound in aqueous solution at pH 7.5 incubated for 1 hr by spectrophotometric analysis
Type: physicochemical
metric name: solubility at 1 h

Prompt: Given CC(=O)N[C@@H](CC(C)C)C(=O)N[C@H](C(=O)N[C@@H](Cc1ccccc1)C(=O)N[C@]1(C)CCCCCC/C=C/CCC[C@@](C)(C(=O)N[C@@H](C)C(=O)N[C@@H](C)C(=O)N[C@@H](C)C(=O)N[C@@H](C)C(=O)N[C@@H](C)C(=O)N[C@H](C)C(N)=O)NC(=O)[C@H](CC(C)C)NC(=O)[C@H](CCC(N)=O)NC(=O)[C@H](C)NC(=O)[C@H](Cc2c[nH]c3ccccc23)NC(=O)[C@H](Cc2ccc(O)cc2)NC(=O)[C@H](CCC(=O)O)NC1=O)[C@@H](C)O , state its recorded solubility at 1 h.
Response: ≤ 0.075 mg/mL
